Below, each of the variants is paired with its reported protein stability index value.
B1: RBBP5 (parent)
chain: TGTSNTTAIKSIEFARKGSCFLIN

variants of: B1; test: protein stability index of a GFP-peptide fusion (GPS, HEK-293T) (PSI 1-6); higher = more stable; conditions: c terminus: a fixed tail appended;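 note: lentivirally expressed fusions sorted by FACS into six bins by GFP to DsRed ratio, PSI derived from sequencing read proportions per bin multiplied by bin number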
Output: the number by itself.

TGTSNTTAIKSIENARKGSCFLIN [F14N] :: 3.17
TGTSNDTAIKSIEFARKGSCFLIN [T6D] :: 2.55
TGTSNTTAIKSIEFARKGHCFLIN [S19H] :: 2.04
TGTSDTTAIKSIEFARKGSCFLIN [N5D] :: 2.35
TGTSNTTAIKSIEFARKGSCFLGN [I23G] :: 2.73

// fetch protein stability index given entry TGTSNTTAIKQIEFARKGSCFLIN [S11Q]
2.74

Quote protein stability index reported for TGRSNTTAIKSIEFARKGSCFLIN [T3R] please.
1.88

For the variant TGTSNTTAIKSIEFARKGKCFLIN [S19K] , give its measured protein stability index value.
2.92

Please give the documented protein stability index of TGTSNTYAIKSIEFARKGSCFLIN [T7Y]
1.89

Identify the reported protein stability index for the following entry. TGTSGTTAIKSIEFARKGSCFLIN [N5G]
2.12

Output measured protein stability index for this item: TGTSNTTQIKSIEFARKGSCFLIN [A8Q]
2.21

Tell us which protein stability index value is on record for TGTSNTTAIKSIEFARKGSGFLIN [C20G]
2.49

Name the recorded protein stability index of the variant listed here: TGTSNTTAIKSLEFARKGSCFLIN [I12L]
1.78

Return protein stability index (reported value) for this variant: TGTSNTTAIKSIEFARCGSCFLIN [K17C]
1.8

Given the variant TGTSNTTAIKSIEFARKSSCFLIN [G18S] , write its reported protein stability index.
2.32

Tell us which protein stability index value is on record for KGTSNTTAIKSIEFARKGSCFLIN [T1K]
2.45

Return protein stability index (reported value) for this variant: TGTSNTTAIKVIEFARKGSCFLIN [S11V]
2.48

Look up protein stability index of TGTSNTTPIKSIEFARKGSCFLIN [A8P] and report it.
2.69

Given the variant TGGSNTTAIKSIEFARKGSCFLIN [T3G] , write its reported protein stability index.
2.24

Check the records and state protein stability index for TGTSNTTAIGSIEFARKGSCFLIN [K10G]
2.19

State, in one line, measured protein stability index of TGTSNTTAIKPIEFARKGSCFLIN [S11P]
2.61
